The measurements presented in this section are drawn from the supplement of paper PMC11061612.

- Tested on: EVSA-T (Breast Carcinoma)
- test details: combination Emax (second highest fraction inhibited in the dose matrix, 72 h); higher = more inhibition; extreme values may be limits of the assay
readout kind: combination Emax

Field: example entries. Status: answers known.
1) Cc1c2c(nn1C)CSCc1cc(n(C)n1)CSc1cc(c3ccccc3c1)OCCCc1c(C(=O)O)n(C)c3c-2c(Cl)ccc13 [AZD5991] + Cn1cnc2c(F)c(Nc3ccc(Br)cc3Cl)c(C(=O)NOCCO)cc21 [Selumetinib] (first compound max 1 µM, 7x7, partner max 3 µM); 1
2) C[C@@H](c1ccc2nccn2c1)n1nnc2ncc(-c3cnn(C)c3)nc21 [Savolitinib] + CN(CC[C@H](CSC1=CC=CC=C1)NC2=C(C=C(C=C2)S(=O)(=O)NC(=O)C3=CC=C(C=C3)N4CCC(CC4)[C@H](C5=CC=CC=C5C6=CC=C(C=C6)Cl)O)S(=O)(=O)C(F)(F)F)CCO [AZD4320] (first compound max 1 µM, 7x7, partner max 1 µM); 0.248

The record that follows has no combination Emax shown yet.
QUERY: Could you please provide reported combination Emax for Cn1cnc2c(F)c(Nc3ccc(Br)cc3Cl)c(C(=O)NOCCO)cc21 [Selumetinib] + CCN(CCO)CCCOc1ccc2c(Nc3cc(CC(=O)Nc4cccc(F)c4)[nH]n3)ncnc2c1 [AZD2811] (first compound max 10 µM, 7x7, partner max 1 µM) ? Thanks!
RESULT: 0.283
